System: T-47D breast
Test: NCI tumour cell line growth inhibition, 48 h
measure: TGI

molecule	measure	test_value
O=C(CCCn1c2c(sc3ncccc32)c(=O)n2nnc(-c3ccccc3)c12)NCCc1cnc[nH]1	TGI	21.6 µM
Oc1c(C(O)(c2ccccc2)c2ccc3ccccc3c2O)ccc2ccccc12	TGI	32.5 µM
C=CCN1CCC(OC(=O)C(O)(/C=C\CC)C2CCCC2)CC1 (stereo not given)	TGI	> 100 µM
C/C(CC(O)(C(F)(F)F)C(F)(F)F)=N\N	TGI	> 10 µM

Consider the record given below.
Requested field: TGI. Item: O=C1CCc2c3c(c4c([nH]c5ccccc54)c2CC1)C(=O)NC3=O
6.01 µM

====

Tested on: OVCAR-4 ovarian
Test: NCI tumour cell line growth inhibition, 48 h
measure: TGI

Example entries begin here.
compound	tested_system	measure	test_value
CCCCCCCCCc1cc(O)c(O)cc1CCCCCCCCC	OVCAR-4 ovarian	TGI	> 10 µM
COc1cc2c(cc1OCCCCNC(=O)c1cc3ccccc3[nH]1)N=CC1CCCN1C2=O (stereo unspecified)	OVCAR-4 ovarian	TGI	94.4 µM
CCN(CC)CCN1C(=O)c2cccc3c(-c4ccc5c(c4)ncn5C4CCCCC4)ccc(c23)C1=O	OVCAR-4 ovarian	TGI	4.56 µM
CC(=O)NNc1nc(C)c(C(=O)NNC(=O)C(=O)Nc2ccc(C)c(C)c2)s1	OVCAR-4 ovarian	TGI	> 100 µM
OC1CN(OC/C=C/c2ccccc2)CC(O)C1O (stereo unspecified)	OVCAR-4 ovarian	TGI	> 100 µM

Which TGI value is on record for C1CNCCN2CCCNCCN(C1)CC2 ?
> 100 µM

Next entry: COc1ccc2c(c1)/C(=C(\C(Cl)=C(\Cl)N1CCCCC1)[N+](=O)[O-])N2
> 100 µM

Record: C/C(=N/O)C1CC=C(S(=O)(=O)c2ccccc2)C1 (stereo unspecified)
> 100 µM

Repeat for the following compound: O=C(CC(=O)c1ccncc1)c1ccccc1
> 100 µM

Check CN(CCCNC(=O)c1cn(C)c2c1ccc1cc(Cl)ccc12)CCCNC(=O)c1cn(C)c2c1ccc1cc(Cl)ccc12 too.
> 27.2 µM

====

Test system: RXF 393 renal
Parameter call: string, one of label 1 (active), label 0 (inactive)

compound	class_label
O=C1Cc2cc(CCn3ccnc3)c(Cl)cc2N1	label 0

How did this test come out for CCOP(=O)(CCP(=O)(OCC)OCC)OCC.C[CH2][Sn]([Cl])([Cl])[CH2]C ?
label 0

Follow-up item: COc1cc2c(cc1OC)C(CCc1ccc(Cl)cc1)N(C)CC2 (stereo not given)
label 0

Cc1ccc(/C=C(\C#N)n2nnc3cc(Cl)c(Cl)cc32)cc1 , same question.
label 0

// query: COc1cc(/C=C/C(=O)C(=Cc2ccc(F)c(F)c2)C(=O)/C=C/c2ccc(O)c(OC)c2)ccc1O
label 0

And then CCN1CCN(CCOc2ccc(CNc3ccc4nc(CCC5CCCCC5)[nH]c4c3)cc2)CC1 , what is it?
label 0

Here is the next compound: O=C(Nc1cccc(Cl)c1)Nc1cccc(Cl)c1
label 0

One more compound: O=C1C2=C(C(=O)c3c(O)ccc(O)c31)N(c1ccc(N3CCOCC3)nc1)Cc1ccccc1O2
label 1

Another compound to check: CCCCCCN(CCCCCC)CCCNc1nccc2ccccc12
label 0

Would you mind doing CSc1ccc2c(c1)c(CCN)c(C)n2Cc1ccc(Cl)c(Cl)c1 as well?
label 0

Numbers sourced from PubChem BioAssay (NCI).
